tested on: BGC-823; assay: Cytotoxicity against human BGC-823 cells incubated for 4 hrs by MTT assay; assay type: functional, cell-based
Active and inactive are the calls of the source. The rule behind the calls is not given here.
Response enum: active, inactive

Hi, do you know how O=C(CCc1ccccc1)N1CCC(O)(Cn2cnc3cc(NCCc4ccccc4)ccc3c2=O)CC1 came out in this test?
active

Assay result, entry O=C(CCc1ccccc1)N1CCC(O)(Cn2cnc3cc(Cl)ccc3c2=O)CC1 — outcome?
inactive

# outcome recorded in this test, key = Nc1cc(Br)ccc1C(=O)N1CCC(O)(Cn2cnc3cc(Cl)ccc3c2=O)CC1
active

Which result was noted for this molecule in the test: O=C(c1ccc(O)cc1)N1CCC(O)(Cn2cnc3cc(Cl)ccc3c2=O)CC1
active

Per the assay record, what outcome was assigned to O=C(COc1cccc2ccccc12)N1CCC(O)(Cn2cnc3cc(Cl)ccc3c2=O)CC1 ?
active

====

target: Ubiquitin carboxyl-terminal hydrolase 7 (Homo sapiens, UniProt Q93009); assay: Inhibition of recombinant USP7 catalytic domain (unknown origin) using UbA10 as substrate incubated with substrate for 75 mins followed by compound addition and measured after 1 hr by TR-FRET assay relative to control; set-up: concentration or dose not given beside the values
Sequence (Q93009 whole entry, looked up, the tested form may be a part): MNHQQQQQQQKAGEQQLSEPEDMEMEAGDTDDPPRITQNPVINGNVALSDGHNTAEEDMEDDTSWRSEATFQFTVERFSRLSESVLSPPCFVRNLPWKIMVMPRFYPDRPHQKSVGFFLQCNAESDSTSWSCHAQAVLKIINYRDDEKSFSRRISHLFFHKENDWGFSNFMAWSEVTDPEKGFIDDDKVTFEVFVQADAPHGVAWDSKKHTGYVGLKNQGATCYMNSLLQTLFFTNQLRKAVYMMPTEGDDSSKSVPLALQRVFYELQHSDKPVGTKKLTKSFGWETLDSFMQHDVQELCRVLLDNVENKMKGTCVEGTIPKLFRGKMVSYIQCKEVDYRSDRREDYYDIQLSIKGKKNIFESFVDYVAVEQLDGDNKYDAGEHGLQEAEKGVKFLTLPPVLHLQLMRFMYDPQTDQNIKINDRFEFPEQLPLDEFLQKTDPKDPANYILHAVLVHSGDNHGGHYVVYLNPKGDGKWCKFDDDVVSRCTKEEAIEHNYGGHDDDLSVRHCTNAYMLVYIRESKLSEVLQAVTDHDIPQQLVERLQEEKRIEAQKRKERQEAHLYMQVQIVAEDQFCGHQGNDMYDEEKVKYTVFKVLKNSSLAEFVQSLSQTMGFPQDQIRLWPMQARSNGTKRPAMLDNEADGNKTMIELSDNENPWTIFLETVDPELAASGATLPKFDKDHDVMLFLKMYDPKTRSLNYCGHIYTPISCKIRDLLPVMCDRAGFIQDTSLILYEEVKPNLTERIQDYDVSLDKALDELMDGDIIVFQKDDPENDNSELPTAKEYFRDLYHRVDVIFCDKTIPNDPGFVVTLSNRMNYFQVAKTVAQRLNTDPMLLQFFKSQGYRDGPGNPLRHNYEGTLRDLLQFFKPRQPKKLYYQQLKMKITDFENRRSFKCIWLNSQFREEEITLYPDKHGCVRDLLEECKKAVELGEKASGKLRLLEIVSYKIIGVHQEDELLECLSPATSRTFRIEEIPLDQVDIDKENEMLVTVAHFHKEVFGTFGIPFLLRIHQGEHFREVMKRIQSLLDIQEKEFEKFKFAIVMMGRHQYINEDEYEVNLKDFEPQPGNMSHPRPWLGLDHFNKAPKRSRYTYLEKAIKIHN
Kindly state inhibition for each of the entries shown.
Give just the numeric value; % need not be written.

Could you share which inhibition value was measured for O=C(/C=C/c1ccccc1)N1CCC(O)(Cn2cnc3cc(Cl)ccc3c2=O)CC1 ?
32.6

Bench note: what inhibition did O=C(COc1ccccc1)N1CCC(O)(Cn2cnc3cc(Cl)ccc3c2=O)CC1 show?
22.7

Entry O=C(CCc1ccccc1)N1CCC(O)(Cn2cnc3cc(NCc4ccc(Cl)cc4)ccc3c2=O)CC1 : reported inhibition = ?
49.9

GET /values?readout=inhibition&item= Cc1ccc(S(=O)(=O)N2CCC(O)(Cn3cnc4cc(Cl)ccc4c3=O)CC2)cc1
0.8

====

molecular target: Ubiquitin carboxyl-terminal hydrolase 7 (Homo sapiens); assay: Binding affinity to recombinant USP7 (208 to 560 residues) (unknown origin) assessed as dissociation constant by biolayer interferometry
Sequence (Q93009 whole entry, the tested form may be a part): as the sequence (Q93009 whole entry, looked up, the tested form may be a part) above
quantity: pKd
Recall that pKd is obtained by taking minus log10 of the concentration measured in molar.

Value lookup for pKd; key = O=C(CCc1ccccc1)N1CCC(O)(Cn2cnc3cc(NCCN4CCCC4)ccc3c2=O)CC1
4.11

====

biological target: Ubiquitin carboxyl-terminal hydrolase 7 (Homo sapiens); assay: Inhibition of recombinant USP7 catalytic domain (unknown origin) using UbA10 as substrate incubated with substrate for 75 mins followed by compound addition and measured after 1 hr by TR-FRET assay
quantity: pIC50
Quick note: pIC50 values are minus log10 of concentrations in mol/L.

Which pIC50 is listed for O=C(CCc1ccccc1)N1CCC(O)(Cn2cnc3cc(NCCc4ccccc4)ccc3c2=O)CC1 ?
4.82

What does the data say about its pIC50? Entry: O=C(CCc1ccccc1)N1CCC(O)(Cn2cnc3cc(NCCN4CCCC4)ccc3c2=O)CC1
5.31

Which pIC50 reading was recorded for the molecule CN(C)CCNc1ccc2c(=O)n(CC3(O)CCN(C(=O)CCc4ccccc4)CC3)cnc2c1 ?
5.22

====

Answer each item with its documented inhibition.
molecular target: Ubiquitin carboxyl-terminal hydrolase 7 (Homo sapiens, UniProt Q93009); assay: Inhibition of recombinant USP7 catalytic domain (unknown origin) using UbA10 as substrate incubated with substrate for 75 mins followed by compound addition and measured after 1 hr by TR-FRET assay relative to control; set-up: concentration or dose not given beside the values
Response body: numeric value in %, unit text excluded.

Need inhibition, item O=C(CCc1ccccc1)N1CCC(O)(Cn2cnc3cc(NCc4ccccc4Cl)ccc3c2=O)CC1
49.1

For the compound Nc1cc(Cl)ccc1C(=O)N1CCC(O)(Cn2cnc3cc(Cl)ccc3c2=O)CC1 , what inhibition is on record?
46.5

Can you share its inhibition? I mean this compound: COc1ccccc1CNc1ccc2c(=O)n(CC3(O)CCN(C(=O)CCc4ccccc4)CC3)cnc2c1
45.9

// inhibition lookup, key: O=C(c1cccc(Br)c1)N1CCC(O)(Cn2cnc3cc(Cl)ccc3c2=O)CC1
42.2
